ASSAYED TARGET: HIV broadly neutralizing antibody 2G12
ASSAY EXPLANATION: radiolabelled glycopeptide with 2G12 in solution, protein G bead capture, scintillation counting
Primed or numbered codes have the meaning given here. Where no end group is shown, it is not given here. [ ]: non-standard residue; d: D form. The star is where a group is joined. Hpra′ = its azide, alkyne or alkene has reacted where a group follows in round brackets; Man9(3) = Man9-azide click-glycosylated onto Hpg; For = O=C*
RECORDED ENDPOINT: Fmax (%)
Give your result in % as a bare value.

{"BINDER": "glycopeptide 10F3 -C15S (peptide) peptide: For-[Hpra′](Man9)DTLHLKQIGG[Hpra′](Man9)PNSITQQDVR[Hpra′](Man9)TSIPYTYTWPGSGSLGHHHHHHRDYKDDDDK", "UNIT SYMBOL": "%", "Fmax": 63}

Now consider a different binder.
Quick note, Fmax for glycopeptide 10F8 (Fixed library, round 10) (peptide) peptide: For-[Hpra′](Man9(3))LLK[Hpra′](Man9(3))VDQSRL[Hpra′](Man9(3))PVPGIGVTLH[Hpra′](Man9(3))RSIPYSYLPIGSGSLGHHHHHHRDYKDDDDK landed at 97
